Attribution: paper PMC2375285

Test system: T47D cells
Experiment: T47D cell proliferation (MTT assay, 7 days)
Assay type: cell-based, human
Conditions: Homo sapiens, T47D, 168 h, read-out: IC50 T47D cell proliferation
Measurement Name: IC50 (nM)
Note: unit nM is implicit; provide only the numeric part.

// query Tell me the measured IC50 of CC1=C(/C=C/C(C)=C/C=C/C(C)=C/C(=O)O)C(C)(C)CCC1 [RA, All-trans-retinoic acid] , please.
// result 2

----------
Target chain: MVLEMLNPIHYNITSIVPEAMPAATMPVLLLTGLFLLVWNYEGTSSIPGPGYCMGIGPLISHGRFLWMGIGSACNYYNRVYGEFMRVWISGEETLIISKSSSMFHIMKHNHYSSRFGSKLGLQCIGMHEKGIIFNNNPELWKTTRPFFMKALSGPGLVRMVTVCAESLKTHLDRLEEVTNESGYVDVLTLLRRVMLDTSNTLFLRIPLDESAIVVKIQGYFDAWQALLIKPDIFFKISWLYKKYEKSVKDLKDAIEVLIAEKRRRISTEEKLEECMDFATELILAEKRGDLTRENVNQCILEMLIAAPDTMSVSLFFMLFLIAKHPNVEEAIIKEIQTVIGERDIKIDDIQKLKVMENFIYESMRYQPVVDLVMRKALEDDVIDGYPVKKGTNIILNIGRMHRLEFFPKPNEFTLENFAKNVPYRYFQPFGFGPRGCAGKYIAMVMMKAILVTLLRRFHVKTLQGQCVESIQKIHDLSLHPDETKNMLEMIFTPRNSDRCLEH
Measurement Name: IC50

// query Given the entry `C[C@@H]([C@H](c1ccc(Nc2nc3ccccc3s2)cc1)n1ccnc1)N(C)C` , report its measured IC50.
// result > 10 µM
